Recorded values, source patent US20240059799A1.

target entity: T1, recombinant human TL1A (human, UniProt O95150 71-251)
T1 construct: homotrimer; biotinylated for SPR capture; the ELISA paragraphs say only 'recombinant TL1A'; also called TNFSF15
T1 chain: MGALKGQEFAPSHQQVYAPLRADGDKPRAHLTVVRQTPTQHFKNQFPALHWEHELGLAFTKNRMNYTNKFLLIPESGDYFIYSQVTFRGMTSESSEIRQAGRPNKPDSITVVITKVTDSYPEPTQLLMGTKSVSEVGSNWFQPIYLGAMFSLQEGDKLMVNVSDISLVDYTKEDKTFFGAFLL
assay text: competition ELISA vs bio-TL1A-0002
# Bioactivity relative to TL1A-0002 per record follows
value type: Bioactivity relative to TL1A-0002

INSERT INTO measurements (binder, measured_value) VALUES
  ('TL1A-0028 (antibody, IgG1, V domains shown, IgG1/kappa variant of TL1A-0002) VH: QVQLVQSGAEVKKPGASVKVSCKASGYDFTYYGISWVRQAPGQGLEWMGWISTYNGNTHYARMLQGRVTMTTDTSTRTAYMELRSLRSDDTAVYYCARENYWGSGAYRGGMDVWGQGTTVTVSS VL: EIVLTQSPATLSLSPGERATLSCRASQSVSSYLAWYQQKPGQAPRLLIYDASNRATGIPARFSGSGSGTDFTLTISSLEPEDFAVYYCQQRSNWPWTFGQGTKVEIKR', '1.2 fold'),
  ('TL1A-0025 (antibody, V domains shown) VH: QVQLVQSGAEVKKPGASVKVSCKASGYDFTYYGISWVRQAPGQGLEWMGWISTYNGNDHYADSLQGRVTMTTDTSTRTAYMELRSLRSDDTAVYYCARENYYGSGAYRGGMDVWGQGTTVTVSS VL: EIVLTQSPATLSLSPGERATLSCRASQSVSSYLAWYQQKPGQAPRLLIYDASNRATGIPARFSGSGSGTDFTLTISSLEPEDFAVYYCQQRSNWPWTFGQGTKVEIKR', '1.6 fold'),
  ('TL1A-0160 (antibody, IgG1, V domains shown, IgG1/kappa variant of TL1A-0002) VH: QVQLVQSGAEVKKPGASVKVSCKASGYDFTYYGISWVRQAPGQGLEWMGWISTYNGNEHYAPSLQGRVTMTTDTSTRTAYMELRSLRSDDTAVYYCARENYYGSGLYRGGMDVWGQGTTVTVSS VL: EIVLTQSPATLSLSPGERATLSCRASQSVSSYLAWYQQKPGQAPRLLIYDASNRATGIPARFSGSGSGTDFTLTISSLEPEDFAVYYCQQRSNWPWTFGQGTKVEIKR', '2 fold'),
  ('TL1A-0023 (antibody, IgG1, V domains shown, IgG1/kappa variant of TL1A-0002) VH: QVQLVQSGAEVKKPGASVKVSCKASGYDFTYYGISWVRQAPGQGLEWMGWISTYNGNDHYAPSLQGRVTMTTDTSTRTAYMELRSLRSDDTAVYYCARENYYGSGAYRGGMDVWGQGTTVTVSS VL: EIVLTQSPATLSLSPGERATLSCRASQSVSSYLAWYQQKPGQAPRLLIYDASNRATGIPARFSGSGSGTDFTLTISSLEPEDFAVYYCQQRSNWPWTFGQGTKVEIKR', '1.3 fold'),
  ('TL1A-0195 (antibody, IgG1, V domains shown, IgG1/kappa variant of TL1A-0002) VH: QVQLVQSGAEVKKPGASVKVSCKASGYDFTYYGISWVRQAPGQGLEWMGWISTYNGNTHYARMLQGRVTMTTDTSTRTAYMELRSLRSDDTAVYYCAREQYYGSGAHRGGMDVWGQGTTVTVSS VL: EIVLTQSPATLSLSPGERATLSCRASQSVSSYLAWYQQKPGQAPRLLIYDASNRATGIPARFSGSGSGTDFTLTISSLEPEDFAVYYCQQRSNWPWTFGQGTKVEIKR', '1.8 fold');
